Items are presented alongside their recorded pKd.
# test.system: T1, hTRF2-DBD qm (K447R/A471S/A484S/R496K) (Homo sapiens, UniProt Q15554 SEQ:1-63)
# T1 chain: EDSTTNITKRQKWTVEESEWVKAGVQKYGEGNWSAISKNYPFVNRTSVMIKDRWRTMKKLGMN
# assay.details: SPR; pH 6.8, 180 mM KCl, 293 K
# setup.conditions: tags: N-terminal Met added; untagged, E. coli BL21(DE3) pET23b; label: biotin (13mer on SA chip)
In textbook form, pKd equals minus log to base ten of the concentration in mol/L.

[
  {
    "binder": "tr13 (dsDNA) DNA 1: GTTAGGGTTAGGG DNA 2: CCCTAACCCTAAC",
    "obs.value": 6.71
  }
]

Next item in the queue.
-- ask Entry T9G (dsDNA) DNA 1: GTTAGGGTGAGGG DNA 2: CCCTCACCCTAAC needs its pKd filled in; supply it.
-- reply 4.58
